Measurement Description: Metabolic stability in human liver microsomes
Type: in vitro ADME
Condition Context: projected human hepatic clearance scaled from microsomal Clint, well-stirred model
Measured Attribute: Human liver microsomes CLhep (mL/min/kg)

[[record]]
compound = "CCNc1nc(Nc2cc(C3(C)CCOC3=O)nn2C2CC2)ncc1Br (stereo not shown)"
u = "mL/min/kg"
data_value = 11.077

[[record]]
compound = "[2H]C([2H])([2H])n1nc(C(C)(C)n2nccn2)cc1Nc1ncc(C(F)(F)F)c(NCC)n1"
u = "mL/min/kg"
data_value = 0.75

[[record]]
compound = "CCNc1nc(Nc2cn(C3(C)CCOC3=O)nc2C2CC2)ncc1Br (stereo not shown)"
u = "mL/min/kg"
data_value = 16.508

[[record]]
compound = "CCNc1nc(Nc2cc(C3(C)CCn4ncnc43)nn2C2CC2)ncc1C(F)(F)F (stereo not shown)"
u = "mL/min/kg"
data_value = 19.9

[[record]]
compound = "CNc1nc(Nc2cc(C3(C)CCOC3=O)nn2C2CC2)ncc1C(F)(F)F (stereo not shown)"
u = "mL/min/kg"
data_value = 5.519

[[record]]
compound = "CNc1nc(Nc2cn(C(C)(C)c3ncn(C)n3)nc2C)ncc1C(F)(F)F"
u = "mL/min/kg"
data_value = 0

[[record]]
compound = "CCNc1nc(Nc2cn(C3(C)CCOC3=O)nc2C2CC2)ncc1C(F)(F)F (stereo not shown)"
u = "mL/min/kg"
data_value = 11.59

